Recorded below: IC50, system NDM-1 (Klebsiella pneumoniae, UniProt C7C422).
# output: bare number, implied unit nM

Example molecules with recorded IC50:
>  <SMILES REPR>
NCC1CCN(c2ccc(S(=O)(=O)N[C@@H](CN)CO)c(S(N)(=O)=O)c2-c2nn[nH]n2)CC1

>  <MEASURE UNIT>
nM

>  <VAL>
0.3

$$$$
>  <SMILES REPR>
NCC1CCN(c2ccc(S(=O)(=O)C[C@H](O)CN)c(S(N)(=O)=O)c2-c2nn[nH]n2)CC1

>  <MEASURE UNIT>
nM

>  <VAL>
8.71

$$$$
>  <SMILES REPR>
NS(=O)(=O)c1c(S(=O)(=O)C2CNC2)ccc(N2CCN(CCCO)CC2)c1-c1nnn[nH]1

>  <MEASURE UNIT>
nM

>  <VAL>
8.79

$$$$

Switching to the query record.
Notebook entry, NDM-1 (Klebsiella pneumoniae, UniProt C7C422) assay: IC50 of NCCS(=O)(=O)c1ccc(N2CCOCC2)c(-c2nnn[nH]2)c1S(N)(=O)=O = ?
11.5
